- system: human recombinant CblC wild type (Homo sapiens, UniProt Q9Y4U1)
- Sequence (Q9Y4U1 whole entry): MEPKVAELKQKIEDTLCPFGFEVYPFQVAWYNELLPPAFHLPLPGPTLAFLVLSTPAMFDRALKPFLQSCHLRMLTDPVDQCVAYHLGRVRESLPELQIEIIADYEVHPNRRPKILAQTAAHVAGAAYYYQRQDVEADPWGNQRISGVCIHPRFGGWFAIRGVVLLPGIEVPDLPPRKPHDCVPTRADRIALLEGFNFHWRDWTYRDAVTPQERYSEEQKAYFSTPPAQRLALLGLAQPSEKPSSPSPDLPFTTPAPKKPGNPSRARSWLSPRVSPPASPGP
- Type: biochemical
- details: human, pH 7.6
property name: Half-life of beta-axial ligand removal, Wild type CblC (min)
Report only the number, with the unit min understood.

The recorded Half-life of beta-axial ligand removal, Wild type CblC for CC1=C2N=C(C=C3N=C(C(C)=C4[N-]C(C(CC(N)=O)C4(C)CCC(=O)NCC(C)OP(=O)([O-])OC4C(CO)OC(n5cnc6cc(C)c(C)cc65)C4O)C4(C)N=C1C(CCC(N)=O)C4(C)CC(N)=O)C(CCC(N)=O)C3(C)C)C(CCC(N)=O)C2(C)CC(N)=O.CCC[CH2][Co+2] (centres unmarked) [BuCbl, butylcobalamin, reference compound] is 1155

Entry CC1=C2N=C(C=C3N=C(C(C)=C4[N-]C(C(CC(N)=O)C4(C)CCC(=O)NCC(C)OP(=O)([O-])OC4C(CO)OC(n5cnc6cc(C)c(C)cc65)C4O)C4(C)N=C1C(CCC(N)=O)C4(C)CC(N)=O)C(CCC(N)=O)C3(C)C)C(CCC(N)=O)C2(C)CC(N)=O.CC[CH2][Co+2] (centres unmarked) [PrCbl, propylcobalamin, reference compound] — recorded Half-life of beta-axial ligand removal, Wild type CblC = 318

Form field Half-life of beta-axial ligand removal, Wild type CblC, entry C/C1=C2/[N-][C@H]([C@H](CC(N)=O)[C@@]2(C)CCC(=O)NC[C@H](C)OP(=O)([O-])O[C@H]2[C@@H](O)[C@@H](n3cnc4cc(C)c(C)cc43)O[C@@H]2CO)[C@]2(C)N=C(/C(C)=C3N=C(/C=C4N=C1[C@@H](CCC(N)=O)C\4(C)C)[C@@H](CCC(N)=O)[C@]\3(C)CC(N)=O)[C@@H](CCC(N)=O)[C@]2(C)CC(N)=O.[CH3-].[Co+3] [MeCbl, Methylcobalamin, reference compound] : 10

// Half-life of beta-axial ligand removal, Wild type CblC lookup, molecule = CC1=C2N=C(C=C3N=C(C(C)=C4[N-]C(C(CC(N)=O)C4(C)CCC(=O)NCC(C)OP(=O)([O-])OC4C(CO)OC(n5cnc6cc(C)c(C)cc65)C4O)C4(C)N=C1C(CCC(N)=O)C4(C)CC(N)=O)C(CCC(N)=O)C3(C)C)C(CCC(N)=O)C2(C)CC(N)=O.CSC[CH2][Co+2] (centres unmarked) , result: 7.5
